- target-of-assay: T1, human TSH receptor (full length), coated on tubes (human, UniProt P16473 22-764)
- T1 construct: TSHR coated tubes as described in WO2004/050708A2; Exact preparation on the tubes is not detailed here; also called thyroid stimulating hormone receptor
- test-summary: competition with 125I-K1-18 IgG on TSHR coated tubes; 10 µg/mL, diluted in HBD serum pool
// values below are reported Inhibition of binding (%)
Numeric answer only, unit % assumed.

>  <binder>
K1-70 Fab (Fab, V domains shown) VH: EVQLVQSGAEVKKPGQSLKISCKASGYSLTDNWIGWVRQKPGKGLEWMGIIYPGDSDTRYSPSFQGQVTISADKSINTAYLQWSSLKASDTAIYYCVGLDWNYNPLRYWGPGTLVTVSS VL: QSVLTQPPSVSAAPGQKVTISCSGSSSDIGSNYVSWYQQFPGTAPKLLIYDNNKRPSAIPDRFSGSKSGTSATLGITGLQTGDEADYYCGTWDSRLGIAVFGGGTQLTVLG

>  <reading-unit>
%

>  <Inhibition of binding (%)>
92.6

$$$$
>  <binder>
K1-18 Fab (Fab, V domains shown) VH: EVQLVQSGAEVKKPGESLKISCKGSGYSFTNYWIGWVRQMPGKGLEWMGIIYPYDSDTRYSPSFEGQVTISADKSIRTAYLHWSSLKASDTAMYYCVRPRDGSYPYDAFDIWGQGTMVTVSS VL: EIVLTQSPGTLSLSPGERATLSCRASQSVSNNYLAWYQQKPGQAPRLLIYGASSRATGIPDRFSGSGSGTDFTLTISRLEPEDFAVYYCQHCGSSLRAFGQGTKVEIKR

>  <reading-unit>
%

>  <Inhibition of binding (%)>
83

$$$$
>  <binder>
K1-18 IgG (antibody, V domains shown) VH: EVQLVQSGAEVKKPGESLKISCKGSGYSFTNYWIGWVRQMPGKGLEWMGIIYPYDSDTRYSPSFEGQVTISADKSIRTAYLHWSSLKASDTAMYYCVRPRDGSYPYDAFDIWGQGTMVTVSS VL: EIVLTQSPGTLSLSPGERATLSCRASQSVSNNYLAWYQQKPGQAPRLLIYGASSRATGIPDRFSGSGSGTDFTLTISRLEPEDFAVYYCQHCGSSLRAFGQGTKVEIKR

>  <reading-unit>
%

>  <Inhibition of binding (%)>
94

$$$$

Please find the next binder below.
Which Inhibition of binding (%) value belongs to K1-70 IgG (antibody, V domains shown) VH: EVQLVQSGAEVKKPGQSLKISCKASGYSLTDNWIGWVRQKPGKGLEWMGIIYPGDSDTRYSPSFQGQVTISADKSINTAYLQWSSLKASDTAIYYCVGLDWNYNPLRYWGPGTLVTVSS VL: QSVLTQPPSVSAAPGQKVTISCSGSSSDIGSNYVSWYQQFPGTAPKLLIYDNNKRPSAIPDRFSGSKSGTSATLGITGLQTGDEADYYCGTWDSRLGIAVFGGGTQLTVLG ?
95.1
